Below, each entry is listed with its recorded pKd.
biological target: T1, human CD3εδ-Fc heterodimer (Hu CD3ε Fc / CD3δ Fc-HIS) (human, UniProt P04234 22-100); assay: SPR (Biacore 8K), yeast-produced Fab, monovalent, pH 7.4
T1 construct: range 22-100; Produced in HEK 293 cells with a heterologous signal peptide; heterodimer purified by Ni Sepharose and Mono Q; also called Hu CD3εδ Fc heterodimer; CD3εδ Fc-HIS heterodimer; not shown: Fc-HIS part of CD3δ Fc-HIS
T1 sequence (chain, as listed by the source mutant, form in doubt, chain 1 of 2): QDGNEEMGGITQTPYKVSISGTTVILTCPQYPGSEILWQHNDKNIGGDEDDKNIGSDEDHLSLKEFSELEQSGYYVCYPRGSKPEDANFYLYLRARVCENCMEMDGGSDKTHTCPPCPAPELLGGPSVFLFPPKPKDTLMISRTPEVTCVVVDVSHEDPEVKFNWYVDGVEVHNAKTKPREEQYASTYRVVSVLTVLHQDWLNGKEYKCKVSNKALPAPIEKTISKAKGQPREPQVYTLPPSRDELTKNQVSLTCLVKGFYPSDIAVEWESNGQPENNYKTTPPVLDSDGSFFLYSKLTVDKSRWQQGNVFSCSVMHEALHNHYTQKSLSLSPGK
T1 sequence (P04234 22-100, stated change not applied, form in doubt, chain 2 of 2): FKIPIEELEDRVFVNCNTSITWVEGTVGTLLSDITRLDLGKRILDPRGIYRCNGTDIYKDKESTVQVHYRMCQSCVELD
Remember, pKd is on a log scale: it is -log10 of the molar concentration.

Some entries whose results are on file:
Fab of ADI-79848 (Antibody No. 9) (Fab, V domains shown, Fab made by papain digestion of the yeast-produced human IgG1; also called Antibody No. 9 Fab; ADI-79848 Fab) VH: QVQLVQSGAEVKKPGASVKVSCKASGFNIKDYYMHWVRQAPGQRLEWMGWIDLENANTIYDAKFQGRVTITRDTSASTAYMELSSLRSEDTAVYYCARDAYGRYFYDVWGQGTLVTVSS VL: DIVMTQSPDSLAVSLGERATINCKSSQSLLNARTGHNYLAWYQQKPGQPPKLLIYWASTRESGVPDRFSGSGSGTDFTLTISSLQAEDVAVYYCKQSYSRRTFGGGTKVEIK	7.48
Fab of ADI-79842 (Antibody No. 7) (Fab, V domains shown, Fab made by papain digestion of the yeast-produced human IgG1; also called Antibody No. 7 Fab; ADI-79842 Fab) VH: QVQLVQSGAEVKKPGASVKVSCKASGFNIKDYYMHWVRQAPGQRLEWMGWIDLENANTIYDAKFQGRVTITRDTSASTAYMELSSLRSEDTAVYYCARDHYGRYFYDVWGQGTLVTVSS VL: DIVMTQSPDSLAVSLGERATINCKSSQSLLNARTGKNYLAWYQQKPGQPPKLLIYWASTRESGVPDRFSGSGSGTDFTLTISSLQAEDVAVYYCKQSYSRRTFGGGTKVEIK	7.49

Proceeding to the next binder to report its pKd.
Give its pKd value. Item: Fab of ADI-79844 (Antibody No. 10) (Fab, V domains shown, Fab made by papain digestion of the yeast-produced human IgG1; also called Antibody No. 10 Fab; ADI-79844 Fab) VH: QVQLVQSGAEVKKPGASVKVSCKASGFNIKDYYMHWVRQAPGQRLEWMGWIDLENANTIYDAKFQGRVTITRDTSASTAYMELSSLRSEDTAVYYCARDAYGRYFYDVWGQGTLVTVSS VL: DIVMTQSPDSLAVSLGERATINCKSSQSLLNARTGKNYLAWYQQKPGQPPKLLIYWASTRESGVPDRFSGSGSGTDFTLTISSLQAEDVAVYYCKQSHSRRTFGGGTKVEIK
8.46
